Each recorded value in this set is attributed to patent US20180112000A1.

Molecular target: T1, recombinant CD28 antigen (extracellular domain, expressed in mammalian cells) (UniProt P10747 19-152, limits assumed)
T1 construct: extracellular domain; Immobilized on a CM5 chip by amine coupling; also called T-cell-specific surface glycoprotein CD28
Experiment: SPR (Biacore), CD28 ECD on CM5 chip, Fab as analyte at 50 ug/mL, 1:1 binding mass transfer model
measurement name: pKd
The read-out pKd is expressed as -log10 of concentration in moles per litre.

Entry under review: huCD28_v3 Fab (humanized) (Fab, V domains shown, not shown: small tags and cut ends, Humanized 15E8 Fab expressed in E. coli periplasm) VH: QVQLQESGPGLVKPSETLSLTCTVSGFSLTSYGVHWIRQPPGKGLEWLGVIWAGGSTNYNSSLKSRVTISKDTSKNQVFLKLSSVTADDTAVYYCARDKRAPGKLYYGYPDYWGQGTTLTVSS VL: DIVMTQSPDSLAVSLGERATINCRASESVEYYVTSLMQWYQQKPGQPPKLLIYAASNVESGVPARFSGSGSGTDFTLTISPLQAEDVAVYYCQQTRKVPSTFGGGTKLEIKR . Reported pKd? 7.28
